- Test system: Mycobacterium tuberculosis
- method_description: Antimycobacterial activity against Mycobacterium tuberculosis H37Rv assessed as inhibition of bacterial growth incubated for 7 days by microplate alamar blue assay
- Format: functional
- experimental_setup: 168 h, time 7 day
attribute_measured: MIC (µM)
State just the number; it will be interpreted in µM.

Reported MIC for CO[C@H]1/C=C/O[C@@]2(C)Oc3c(C)c(O)c4c(O)c(c(/C=N/N5CCN(C)CC5)c(O)c4c3C2=O)NC(=O)/C(C)=C\C=C\[C@H](C)[C@H](O)[C@@H](C)[C@@H](O)[C@@H](C)[C@H](OC(C)=O)[C@@H]1C : what is it?
0.11

Reported MIC for O=C(NC(=O)c1ccsc1NC(=O)c1nc2ccccc2s1)OCC1CC1 : what is it?
0.77

Reported MIC for O=C(NC(=O)c1ccsc1NC(=O)c1nc2ccccc2s1)OCC1CCC1 : what is it?
3.01

Reported MIC for N#Cc1ccc(C(=O)Nc2sccc2C(=O)NC(=O)OCC2CC2)nc1 : what is it?
216

Reported MIC for CCOC(=O)NC(=O)c1ccsc1NC(=O)c1nc2ccccc2s1 : what is it?
1.68

Reported MIC for CC(=O)c1ccc(C(=O)Nc2sccc2C(=O)NC(=O)OCC2CC2)cc1 : what is it?
51.8
